Biological target: UniProt Q91WC9
Test: mouse DAGLb substrate turnover inhibition – biochemical, LC-MS, overexpressed mouse DAGLb (AID 602415)
Conditions: HEK293T membranes overexpressing mDAGLb, SAG turnover LC-MS; at 10 µM; active compounds read low
endpoint: substrate turnover (%)
Report the figure in % without appending any unit label.

> print(dat)
                                   compound  quantity.unit  recorded.result
1  COC(=O)C1=C(C(=O)OC)SC(=C2C(=S)C(C)(C)N(C(=O)C3CC3)c3ccccc32)S1              %               95
2  CC1(C)CC(=O)C2=C(C1)c1c(ccc3ccccc13)NC2c1cc([N+](=O)[O-])cc([N+](=O)[O-])c1O (stereo not given)              %               46
3  CCCCCCCCCCC[C@@H](C[C@@H]1OC(=O)[C@H]1CCCCCC)OC(=O)[C@H](CC(C)C)NC=O              %                0
4  COc1ccc(C=NNc2ccc(C(F)(F)F)cc2[N+](=O)[O-])cc1O              %               76
5  CN(C)c1ccc(N=Nc2ccccc2C(=O)OCC(=O)Nc2ccccc2C(F)(F)F)cc1              %               67
6     O=C1C(=C(c2ccccc2)c2ccccc2)Nc2ccccc21              %               50
7  COc1ccc(S(=O)(=O)N2CCOCC2)cc1N=Nc1sc(N)nc1-c1ccccc1              %               97
8  O=C(O)COc1ccccc1C=NNc1ccc(S(=O)(=O)Nc2ccc(Cl)cc2)cc1[N+](=O)[O-]              %               50
9     CCSC1=NC(=O)/C(=C2/C=Cc3ccccc3N2CC)S1              %              100

Alright, here's another compound for you.
stdin: // returns reported substrate turnover for input `O=C1CC(=C(c2ccccc2)c2ccccc2)C(=O)N1CCCCN1CCN(c2cccc(Cl)c2)CC1`
stdout: 26

* * *

Biological target: Diacylglycerol lipase-beta (Mus musculus) (UniProt Q91WC9)
Sequence (Q91WC9 whole entry, looked up): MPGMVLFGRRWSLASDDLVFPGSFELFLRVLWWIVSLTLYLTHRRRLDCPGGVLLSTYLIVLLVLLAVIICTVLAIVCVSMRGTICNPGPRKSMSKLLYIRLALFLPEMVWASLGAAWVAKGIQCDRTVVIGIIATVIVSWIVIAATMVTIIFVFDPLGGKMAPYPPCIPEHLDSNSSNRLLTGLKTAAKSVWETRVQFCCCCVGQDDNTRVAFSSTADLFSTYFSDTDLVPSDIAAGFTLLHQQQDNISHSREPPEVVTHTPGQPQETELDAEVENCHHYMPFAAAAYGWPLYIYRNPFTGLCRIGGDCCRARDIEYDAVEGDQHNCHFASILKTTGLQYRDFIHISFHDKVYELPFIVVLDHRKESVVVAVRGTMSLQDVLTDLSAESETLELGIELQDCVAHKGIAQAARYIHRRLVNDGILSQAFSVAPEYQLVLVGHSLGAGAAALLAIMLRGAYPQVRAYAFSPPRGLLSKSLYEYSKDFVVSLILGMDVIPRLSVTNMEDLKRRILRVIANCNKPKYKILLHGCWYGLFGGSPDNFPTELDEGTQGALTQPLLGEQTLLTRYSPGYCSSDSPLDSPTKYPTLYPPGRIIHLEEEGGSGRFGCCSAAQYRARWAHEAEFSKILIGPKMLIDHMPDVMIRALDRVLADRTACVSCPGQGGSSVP
Assay: mouse DAGLb substrate turnover inhibition – biochemical, LC-MS, overexpressed mouse DAGLb (AID 602415)
Conditions: HEK293T membranes overexpressing mDAGLb, SAG turnover LC-MS; at 10 µM; active compounds read low
The threshold is 60%. Values of substrate turnover beneath it are tagged Met; values meeting or exceeding it are tagged Not met.

Worked set:
> print(dat)
                                   molecule  class.label
1  Cc1cc(N=Nc2ccccc2)c(NCC(O)C(O)C(O)CO)cc1C (configuration not stated)      Not met
2  O=C(NC(C(=O)NN=Cc1c2ccccc2cc2ccccc12)c1n[nH]c(=O)c2ccccc12)c1ccccc1 (configuration not stated)      Not met
3  CC1(C)CCCN(C(=O)c2ccc3c(c2NCCO)C(=O)c2ccccc2C3=O)C1          Met
4  CC(=O)C1=C(O)C(=O)N(c2cc(C(C)(C)C)on2)C1c1ccc(Br)cc1 (configuration not stated)          Met

stdin: Is substrate turnover of `Cc1cc(N=Nc2ccccc2C(=O)O)c(C)c(C)c1O` strictly below 60%?
stdout: Not met
